- protocol: chemical genetic growth profiling, strain panel (AID 1159580);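 further: tested at 20 µM; growth read once vehicle control cultures reached saturation at 30 °C; 1 = growth at the plate median or of vehicle wells; lower values mean less growth of the strain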
- condition.notes: S. cerevisiae deletion strains, growth OD, locus YPR106W, strain ISR1
Among all 5,500 compounds or so, about 2,000 (36%) were called active. Inconclusive results (about 18%) are left out. No stated cut-off is given here; in the data, active means normalized growth mostly below about 0.91 (no sharp cut-off); inconclusive means no clear call, values can overlap the other calls; inactive means mostly above about 0.92. This is one part of the list.
Hi! Could you answer with just one of these? label 1 (active), label 0 (inactive)

## Input For this compound, state the assay outcome: N/C(CCSc1ccc(Cl)cc1)=N/OC(=O)Nc1ccc(Cl)cc1
## Output label 0

## Input For this compound, state the assay outcome: O=C(/C=C/c1ccc2c(c1)OCO2)Nc1ccc(Br)cc1
## Output label 0

## Input For this compound, state the assay outcome: O=[N+]([O-])c1ccc(-c2noc(-c3ccno3)n2)o1
## Output label 1

More entries:
## Input For this compound, state the assay outcome: Cc1c(C(=O)Sc2ccc(F)cc2F)sc2nc(C(F)(F)F)nn12
## Output label 1

## Input For this compound, state the assay outcome: N/C(Cn1ccc(C(F)(F)F)n1)=N/OS(=O)(=O)c1cccc(Cl)c1Cl
## Output label 0

## Input For this compound, state the assay outcome: Oc1c(Cl)cc(Cl)cc1C=Nc1nc(-c2ccc3ccccc3c2)cs1
## Output label 0

## Input For this compound, state the assay outcome: O=C(Nc1cccc(C(F)(F)F)c1)c1cncc(C#Cc2ccccc2)c1
## Output label 0

## Input For this compound, state the assay outcome: Fc1cc(I)ccc1Nc1ccnc2cc(Cl)ccc12
## Output label 0

###

Give normalized growth for every item shown.
- protocol: chemical genetic growth profiling, strain panel (AID 1159580);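 further: tested at 20 µM; growth read once vehicle control cultures reached saturation at 30 °C; 1 = growth at the plate median or of vehicle wells; lower values mean less growth of the strain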
- condition.notes: S. cerevisiae deletion strains, growth OD, locus YOR265W, strain rbl2, active compounds read low
Hit rate of the full screen: of about 5,500 compounds, about 2,000 (36%) were called active. About 18% were inconclusive and are not listed. Some of the results follow.
Answers are plain numbers.

Examples from the recorded data:
Entry C[C@H]1COc2c(N3CCN(C)CC3)c(F)cc3c(=O)c(C(=O)O)cn1c23 ; normalized growth = 1.03

Entry CCN(CC)C(=O)N1CCN(C)CC1 ; normalized growth = 0.989

Give me normalized growth for each of these compounds, listed below.
1. COc1cc([C@@H]2c3cc4c(cc3C(OC3O[C@@H]5COC(C)O[C@H]5[C@H](O)[C@H]3O)C3COC(=O)[C@@H]32)OCO4)cc(OC)c1O (stereo not given in full)
2. COc1ccc(C(=O)CC(=O)O)c2c1C=CC(C)(C)O2
3. CCn1cc(C(=O)O)c(=O)c2cc(F)c(N3CCNC(C)C3)c(F)c21 (stereo not given)
4. CCCCCCCCC(=O)NCc1ccc(O)c(OC)c1
5. CCn1cc(C(=O)O)c(=O)c2cc(F)c(N3CCNCC3)nc21
6. COc1ccc(C(CN(C)C)C2(O)CCCCC2)cc1 (stereo not given)
7. CC[C@@H]1C=C/C=C/C[C@H](C)[C@@H](O)[C@](C)(O)C(=O)[C@H](C)[C@@H](O)[C@H](C)C(=O)[C@H](C)[C@@H](O)[C@H](C)/C=C/C(=O)O[C@H]2[C@@H](C)[C@@H](CC1)O[C@@]1(CC[C@@H](C)[C@@H](C[C@H](C)O)O1)[C@@H]2C
8. COc1ccc(OC)c(C(O)CNC(=O)CN)c1 (stereo not given)

## Output
[1.01, 1.02, 0.972, 1.01, 0.986, 0.989, 1, 0.998]
